Cited source: ChEMBL document CHEMBL4373715

Measured inhibition, listed per entry.
molecular target: DNA topoisomerase 2-alpha (Homo sapiens) (UniProt P11388); experiment: Inhibition of recombinant human topoisomerase 2alpha-mediated relaxation of supercoiled pBR322 DNA at 20 uM measured after 30 mins by ethidium bromide staining based agarose gel electrophoresis relative to control
Sequence (P11388 whole entry): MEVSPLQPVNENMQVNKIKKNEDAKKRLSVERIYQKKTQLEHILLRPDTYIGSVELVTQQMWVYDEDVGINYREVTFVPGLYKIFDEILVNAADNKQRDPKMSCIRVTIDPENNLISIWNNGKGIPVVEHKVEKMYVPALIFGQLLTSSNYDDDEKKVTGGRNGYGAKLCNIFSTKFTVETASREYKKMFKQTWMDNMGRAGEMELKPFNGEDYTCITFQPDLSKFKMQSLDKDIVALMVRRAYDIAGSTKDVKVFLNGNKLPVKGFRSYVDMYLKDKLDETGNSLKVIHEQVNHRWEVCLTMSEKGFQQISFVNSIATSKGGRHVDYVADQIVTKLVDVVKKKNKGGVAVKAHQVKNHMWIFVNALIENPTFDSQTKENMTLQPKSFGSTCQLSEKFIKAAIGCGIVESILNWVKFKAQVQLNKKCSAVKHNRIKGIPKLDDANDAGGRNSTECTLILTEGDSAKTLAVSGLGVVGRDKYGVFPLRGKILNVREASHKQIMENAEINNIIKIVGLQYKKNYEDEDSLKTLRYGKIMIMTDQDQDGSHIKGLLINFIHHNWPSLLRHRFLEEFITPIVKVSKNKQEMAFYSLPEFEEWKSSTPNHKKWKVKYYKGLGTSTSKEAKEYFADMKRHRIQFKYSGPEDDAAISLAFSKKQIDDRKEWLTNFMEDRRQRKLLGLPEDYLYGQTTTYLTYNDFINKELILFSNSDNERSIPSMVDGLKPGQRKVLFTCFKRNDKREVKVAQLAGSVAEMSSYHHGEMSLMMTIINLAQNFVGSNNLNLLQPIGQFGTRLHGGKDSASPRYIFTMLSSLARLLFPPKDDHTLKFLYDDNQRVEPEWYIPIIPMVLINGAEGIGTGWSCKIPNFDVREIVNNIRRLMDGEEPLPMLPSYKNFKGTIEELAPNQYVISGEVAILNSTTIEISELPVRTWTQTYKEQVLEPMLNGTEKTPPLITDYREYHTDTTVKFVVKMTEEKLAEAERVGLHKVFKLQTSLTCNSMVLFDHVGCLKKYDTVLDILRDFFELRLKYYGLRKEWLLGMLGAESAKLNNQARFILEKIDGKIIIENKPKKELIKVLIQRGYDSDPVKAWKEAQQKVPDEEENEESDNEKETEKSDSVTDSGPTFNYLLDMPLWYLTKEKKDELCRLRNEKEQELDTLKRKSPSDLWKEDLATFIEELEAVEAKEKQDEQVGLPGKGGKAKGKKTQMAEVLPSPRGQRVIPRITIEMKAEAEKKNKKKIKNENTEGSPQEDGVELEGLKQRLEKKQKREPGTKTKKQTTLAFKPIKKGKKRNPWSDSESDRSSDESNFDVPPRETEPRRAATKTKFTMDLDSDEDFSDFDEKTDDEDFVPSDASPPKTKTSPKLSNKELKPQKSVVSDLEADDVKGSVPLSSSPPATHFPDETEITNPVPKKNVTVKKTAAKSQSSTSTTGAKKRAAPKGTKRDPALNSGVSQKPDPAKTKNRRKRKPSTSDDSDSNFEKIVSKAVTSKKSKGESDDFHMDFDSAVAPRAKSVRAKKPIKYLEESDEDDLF
Just the number please, in %, no unit attached.

Use the examples below as a reference point.
cpdSmiles | resultUnit | inhibition
Oc1cccc(-c2cc(-c3ccccc3)c3c(n2)-c2ccc(O)cc2C3)c1 | % | 3.3
Oc1ccc2c(c1)Cc1c(-c3ccccc3)cc(-c3ccccc3)nc1-2 | % | 2.1
Oc1ccc(-c2cc(-c3ccc(F)cc3)nc3c2Cc2c(O)cccc2-3)cc1 | % | 3.6

Give inhibition for `Oc1ccc(-c2cc(-c3cccc(F)c3)nc3c2Cc2cccc(O)c2-3)cc1` tested on DNA topoisomerase 2-alpha (Homo sapiens) (UniProt P11388).
3.9

Would you please give the reported inhibition of `Oc1ccccc1-c1cc(-c2cccc(Cl)c2)nc2c1Cc1c(O)cccc1-2` with DNA topoisomerase 2-alpha (Homo sapiens) (UniProt P11388)?
6.9

Report measured inhibition on DNA topoisomerase 2-alpha (Homo sapiens) (UniProt P11388); entry: `Oc1ccc(-c2cc(-c3ccccc3Cl)nc3c2Cc2ccc(O)cc2-3)cc1`
19.2

Provide measured inhibition on DNA topoisomerase 2-alpha (Homo sapiens) (UniProt P11388) for `Oc1ccc2c(c1)Cc1c(-c3ccccc3O)cc(-c3ccc(C(F)(F)F)cc3)nc1-2` please.
11.9

###

test system: DU-145; test: Antiproliferative activity against human DU145 cells measured after 72 hrs by EZ-Cytox assay; type: functional, cell-based; conditions: DU-145, 72 h
valueType: pIC50
Quick note: pIC50 values are minus log10 of concentrations in mol/L.

cpdSmiles | pIC50
Oc1ccccc1-c1cc(-c2ccc(Cl)cc2)c2c(n1)-c1cccc(O)c1C2 | 4.89
Oc1ccccc1-c1cc(-c2ccccc2Cl)nc2c1Cc1cccc(O)c1-2 | 6.54

# input for lookup
Write down the reported pIC50 (system: DU-145) of `Oc1ccc2c(c1)-c1nc(-c3ccccc3)cc(-c3ccccc3)c1C2`
5.46

###

molecular target: DNA topoisomerase 1 (Homo sapiens); experiment: Inhibition of recombinant human topoisomerase 1-mediated relaxation of supercoiled pBR322 DNA at 100 uM measured after 30 mins by ethidium bromide staining based agarose gel electrophoresis relative to control
Entry flag: true (1) if inhibition reaches 0.1%; false (0) if it does not.

# example entries with known answers
cpdSmiles | assignedClass
Oc1ccc2c(c1)Cc1c(-c3ccccc3O)cc(-c3ccccc3C(F)(F)F)nc1-2 | true (1)
Oc1ccc2c(c1)-c1nc(-c3ccc(F)cc3)cc(-c3ccccc3O)c1C2 | false (0)
Oc1cccc(-c2cc(-c3ccc(C(F)(F)F)cc3)nc3c2Cc2cccc(O)c2-3)c1 | false (0)
Oc1ccc(-c2cc(-c3ccc(Cl)cc3)c3c(n2)-c2ccc(O)cc2C3)cc1 | true (1)
Oc1ccc(-c2cc(-c3ccc(Cl)cc3)nc3c2Cc2cc(O)ccc2-3)cc1 | false (0)

Reported inhibition at or above 0.1%? `Oc1cccc(-c2cc(-c3ccc(Cl)cc3)nc3c2Cc2cccc(O)c2-3)c1`
true (1)

###

test system: DU-145; test: Antiproliferative activity against human DU145 cells measured after 72 hrs by EZ-Cytox assay; type: functional, cell-based; conditions: DU-145, 72 h
Listed next: entries and their corresponding log10(IC50).
Answers are given as log10 of IC50 in µM.

These recorded examples may help you get a feel for the data.
cpdSmiles | testTarget | valueType | reportedResult
Oc1ccc(-c2cc(-c3cccc(F)c3)nc3c2Cc2cc(O)ccc2-3)cc1 | DU-145 | log10(IC50) | 0.16
Oc1cccc(-c2cc(-c3ccc(F)cc3)nc3c2Cc2cccc(O)c2-3)c1 | DU-145 | log10(IC50) | 0.52
Oc1ccc2c(c1)Cc1c(-c3ccccc3O)cc(-c3ccccc3)nc1-2 | DU-145 | log10(IC50) | 0.00
Oc1ccccc1-c1cc(-c2ccc(F)cc2)nc2c1Cc1c(O)cccc1-2 | DU-145 | log10(IC50) | 0.37
Oc1ccc(-c2cc(-c3ccccc3Cl)nc3c2Cc2cccc(O)c2-3)cc1 | DU-145 | log10(IC50) | -0.72

Return reported log10(IC50). Input molecule: `Oc1ccc(-c2cc(-c3ccc(C(F)(F)F)cc3)nc3c2Cc2cccc(O)c2-3)cc1`
1.12

Give log10(IC50) for the following molecule: `Oc1cccc(-c2cc(-c3ccccc3Cl)c3c(n2)-c2cccc(O)c2C3)c1`
0.75

Input `Oc1ccc(-c2cc(-c3ccccc3)c3c(n2)-c2cccc(O)c2C3)cc1` , output reported log10(IC50).
-0.43

Entry `Oc1ccc(-c2cc(-c3ccc(Cl)cc3)nc3c2Cc2ccc(O)cc2-3)cc1` needs its log10(IC50) filled in; supply it.
0.35

Entry `Oc1ccc2c(c1)Cc1c(-c3ccccc3)cc(-c3ccccc3)nc1-2` needs its log10(IC50) filled in; supply it.
0.58
